Target or test system: T1, Nrd1_(1-222) (S. cerevisiae, UniProt P53617 1-222)
T1 chain: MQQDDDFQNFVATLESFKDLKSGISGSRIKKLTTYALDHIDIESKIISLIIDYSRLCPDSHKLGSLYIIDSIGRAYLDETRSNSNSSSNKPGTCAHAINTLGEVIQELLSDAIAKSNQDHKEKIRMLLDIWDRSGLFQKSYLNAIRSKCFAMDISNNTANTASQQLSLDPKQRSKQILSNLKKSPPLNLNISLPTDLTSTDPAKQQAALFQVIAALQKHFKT
Experimental protocol: ITC
pKd: −log10 of the molar value.
Parameter measured: pKd

• Nrd1 interaction domain of Nab3 (Nab3 191-261) (domain or fragment, S. cerevisiae, UniProt P38996 191-261, looked up, 15N/13C-labelled or unlabelled for NMR; natural abundance for ITC; also called NRID; Nab3 NRID; source: E. coli BL21(DE3), purified (IMAC, TEV digestion, second IMAC, gel filtration); not shown: TxA (E. coli thioredoxin A), N-terminal, cleaved; His6, N-terminal, cleaved) REENDNTHFPTNMENVNYDLLQKQVKYIMDSNMLNLPQFQHLPQEEKMSAILAMLNSNSDTALSVPPHDST = 6.85

Reference source: paper PMC8761494
